Target: full-length SARM1 (FL-SARM1) (Homo sapiens, UniProt Q6SZW1)
Sequence (Q6SZW1 28-724): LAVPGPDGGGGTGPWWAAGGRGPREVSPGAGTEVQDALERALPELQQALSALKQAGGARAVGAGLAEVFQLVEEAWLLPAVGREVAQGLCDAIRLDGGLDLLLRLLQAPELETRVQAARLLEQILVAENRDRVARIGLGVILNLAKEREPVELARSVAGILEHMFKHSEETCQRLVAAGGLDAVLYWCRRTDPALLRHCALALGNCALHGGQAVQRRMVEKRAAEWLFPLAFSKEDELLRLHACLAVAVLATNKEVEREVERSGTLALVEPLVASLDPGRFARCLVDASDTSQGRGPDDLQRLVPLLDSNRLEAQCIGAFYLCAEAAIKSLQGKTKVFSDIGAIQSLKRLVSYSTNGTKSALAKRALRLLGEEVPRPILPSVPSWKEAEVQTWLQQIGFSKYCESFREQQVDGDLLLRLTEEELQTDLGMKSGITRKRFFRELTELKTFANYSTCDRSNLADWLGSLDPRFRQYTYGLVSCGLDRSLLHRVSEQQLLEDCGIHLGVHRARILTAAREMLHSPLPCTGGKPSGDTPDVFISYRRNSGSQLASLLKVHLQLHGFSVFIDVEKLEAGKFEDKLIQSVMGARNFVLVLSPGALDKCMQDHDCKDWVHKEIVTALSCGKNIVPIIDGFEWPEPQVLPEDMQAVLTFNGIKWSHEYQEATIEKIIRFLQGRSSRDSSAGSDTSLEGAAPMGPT
Experiment: FL-SARM1 cellular lysate assay (NAD/NADH-Glo readout of remaining NAD+)
Details: Activity (μM), SARM1 cellular lysate from transfected HEK293T cells, NAD+ and NMN, 11 point curve

| compound | IC50 (µM) |
| --- | --- |
| Cc1ccc(NC(=O)N2C3CCCC2C3)cc1-c1cncc(F)c1 [Example 87] | 0.1 |
| Cc1ccc(NC(=O)N2C3CCCC2C3)cc1-c1cncc(C(F)(F)F)c1 [Example 116] | 0.1 |
| Cc1ccc(NC(=O)N2CC3CCC2C3)cc1-c1cncc(F)c1 (centres unmarked) [Example 18] | 1 |
| O=C(Nc1cccc(-c2cncc(F)c2)c1)N1C2CCCC1C2 [Example 73] | 1.2 |
| Cc1ccc(NC(=O)N2C3CCCC2C3)cc1-c1cncc(Cl)c1 [Example 117] | 0.03 |
